# testedOn: T1, Human B7-H3 extracellular domain (NCBI Reference Sequence: NM_025240.2) (human, UniProt Q5ZPR3 29-466)
# T1 chain: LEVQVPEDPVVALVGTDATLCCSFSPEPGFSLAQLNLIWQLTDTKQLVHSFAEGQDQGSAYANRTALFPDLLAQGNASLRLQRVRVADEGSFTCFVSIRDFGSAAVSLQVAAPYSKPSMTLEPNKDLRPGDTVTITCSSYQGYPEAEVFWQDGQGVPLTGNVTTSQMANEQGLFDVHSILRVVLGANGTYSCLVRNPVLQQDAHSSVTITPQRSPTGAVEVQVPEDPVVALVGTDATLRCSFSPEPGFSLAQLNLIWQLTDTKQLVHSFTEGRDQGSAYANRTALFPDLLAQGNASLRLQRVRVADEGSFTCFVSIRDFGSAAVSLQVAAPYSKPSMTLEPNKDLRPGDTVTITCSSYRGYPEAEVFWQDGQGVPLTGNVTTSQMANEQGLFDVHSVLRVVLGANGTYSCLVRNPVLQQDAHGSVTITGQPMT
# methodDescription: SPR, Biacore 8K, antibody captured through Fc, B7-H3 ECD as analyte
measure: koff (s⁻¹)
The figure you give is taken to be in s⁻¹; do not add the unit.

Problem: What measured koff goes with #23-5423 (VH5-4-VL2-3) (antibody, IgG1, V domains shown, Humanized antibody from murine #23) VH: QVQLVQSGAEVKKPGESLKISCKASGYNFNNYWMHWVRQRPGKGLEWIGMIHPNSGTFNYNERFKRKATLTVDKSISTAYLQWSSLKAEDTAMYYCAKSTALATDYWGQGTLVTVSS VL: QIVLTQSPSTLSASVGDRVTITCSASSSVSYMYWYQQKPGKAPKLLIYDTSNLASGVPIRFSGSGSGTSYTLTISSLQPDDFATYYCQQWSSYPLTFGQGTKLEIK ?
Solution: 0.000345
